src = patent US12371454B2

SUBJECT OF TEST: Kras and SOS1 (biotin-tagged human Kras loaded with GDP, His-tagged human SOS1) (Homo sapiens, UniProt P01116, G12D)
Construct: made in house; host or cells: E. coli (stated for Kras only)
Sequence (P01116 1-188 isoform P01116-2 G12D): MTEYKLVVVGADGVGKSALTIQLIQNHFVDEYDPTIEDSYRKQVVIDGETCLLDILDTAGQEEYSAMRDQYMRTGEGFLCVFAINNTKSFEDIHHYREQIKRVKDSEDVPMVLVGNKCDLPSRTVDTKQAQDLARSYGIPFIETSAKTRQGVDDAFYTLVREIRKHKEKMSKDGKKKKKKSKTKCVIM
ASSAY NAME: Protein-protein interaction inhibition between Kras and SOS1 (KrasGl2D-SOS PPI) using AlphaScreen
Format: binding
MEASUREMENT SETUP: AlphaScreen; biotin-tagged human Kras loaded with GDP, His-tagged human SOS1; read-out: KRAS G12D-SOS PPI IC50
Positions of bridges follow the written chain, without caps; N, C: chain ends. Non-standard residues stand in square brackets, D forms with d. Residues, ends and D or L forms follow the SMILES beside them. *: point of attachment. hPhe(3-Cl-4-CF3) = N[C@@H](CCc1ccc(C(F)(F)F)c(Cl)c1)C(=O)O; 3Oxa8azabicyclo(3.2.1)octane = C1CC2COCC1N2*; NMeAla(cPent) = CN[C@@H](CC1CCCC1)C(=O)O; NMeGly(cBu) = CN[C@H](C(=O)O)C1CCC1; NMeCha = CN[C@@H](CC1CCCCC1)C(=O)O; NMeChg = CN[C@H](C(=O)O)C1CCCCC1; N(CH2CH2)2CF2 = FC1(F)CCN(*)CC1; NMeD = CN[C@@H](CC(=O)O)C(=O)O; NMeL = CN[C@@H](CC(C)C)C(=O)O; NMeV = CN[C@H](C(=O)O)C(C)C; Piperidide = C1CCN(*)CC1; Ac5c = NC1(C(=O)O)CCCC1; Sar = CNCC(=O)O
# pIC50 values compiled below
Reminder that pIC50 means the negative base-10 logarithm of the concentration expressed in mol/L.

Notebook: CC[C@H](C)[C@@H]1NC(=O)[C@H](CC(C)C)N(C)C(=O)C[C@@H](C(=O)N2CCCCC2)N(C)C(=O)[C@H](C(C)C)N(C)C(=O)[C@H](C)NC(=O)[C@H](CC(=O)N2CCC(F)(F)CC2)N(C)C(=O)[C@H](CCc2ccc(C(F)(F)F)c(Cl)c2)NC(=O)CN(C)C(=O)[C@H](CC2CCCCC2)N(C)C(=O)CN(C)C(=O)CN(C)C1=O [Compound 444] ([NMeL]I[Sar][Sar][NMeCha][Sar][hPhe(3-Cl-4-CF3)][NMeD](N(CH2CH2)2CF2)A[NMeV][NMeD]-Piperidide; lactam N-11) , pIC50 read as 7.74

***
Notebook: CC[C@H](C)[C@@H]1NC(=O)[C@H](C2CCC2)N(C)C(=O)C[C@@H](C(=O)N2C3CCC2COC3)N(C)C(=O)[C@H](C2CCCCC2)N(C)C(=O)C2(CCCC2)NC(=O)[C@@H]2CCCN2C(=O)[C@H](CCc2ccc(C(F)(F)F)c(Cl)c2)NC(=O)CN(C)C(=O)[C@H](CC2CCCC2)N(C)C(=O)CN(C)C(=O)CN(C)C1=O [Compound 461] ([NMeGly(cBu)]I[Sar][Sar][NMeAla(cPent)][Sar][hPhe(3-Cl-4-CF3)]P[Ac5c][NMeChg][NMeD]-{3Oxa8azabicyclo(3.2.1)octane}; lactam N-11) , pIC50 read as 8.92

* * *

SUBJECT OF TEST: Kras and SOS1 (biotin-tagged human Kras loaded with GDP, His-tagged human SOS1) (Homo sapiens, UniProt P01116, G12D)
Construct: made in house; host or cells: E. coli (stated for Kras only)
ASSAY NAME: Protein-protein interaction inhibition between Kras and SOS1 (KrasGl2D-SOS PPI) using AlphaScreen
Type: binding
MEASUREMENT SETUP: AlphaScreen; biotin-tagged human Kras loaded with GDP, His-tagged human SOS1; read-out: KRAS G12D-SOS PPI IC50
Positions of bridges follow the written chain, without caps; N, C: chain ends. Non-standard residues stand in square brackets, D forms with d. Residues, ends and D or L forms follow the SMILES beside them. *: point of attachment. hPhe(3-Cl-4-CF3) = N[C@@H](CCc1ccc(C(F)(F)F)c(Cl)c1)C(=O)O; Phe(3-I) = N[C@@H](Cc1cccc(I)c1)C(=O)O; NMeY = CN[C@@H](Cc1ccc(O)cc1)C(=O)O; NMeCha = CN[C@@H](CC1CCCCC1)C(=O)O; NMeD = CN[C@@H](CC(=O)O)C(=O)O; NMeL = CN[C@@H](CC(C)C)C(=O)O; NMeV = CN[C@H](C(=O)O)C(C)C; d(β3hA) = C[C@@H](N)CC(=O)O; NMeA = CN[C@@H](C)C(=O)O; NMeAib = CNC(C)(C)C(=O)O; Piperidide = C1CCN(*)CC1; Pra = C#CC[C@H](N)C(=O)O; Ac5c = NC1(C(=O)O)CCCC1; Aze = O=C(O)[C@@H]1CCN1; NEtG = CCNCC(=O)O; CF3 = FC(F)(F)*; Sar = CNCC(=O)O
# IC50 values compiled below
Write the answer as a number in µM, unit excluded.

Previously resolved entries follow.
Notebook: C#CC[C@@H]1NC(=O)[C@H](Cc2cccc(I)c2)NC(=O)CN(C)C(=O)[C@H](Cc2ccc(OC(F)(F)F)cc2)N(C)C(=O)[C@@H]2CCN2C(=O)[C@H](C)N(C)C(=O)[C@H]([C@@H](C)CC)NC(=O)[C@H](CC(C)C)N(C)C(=O)C[C@@H](C(=O)N2CCCCC2)N(C)C(=O)[C@H](CC(C)C)NC(=O)C(C)(C)N(C)C1=O [Compound 1288] ([NMeL]I[NMeA][Aze][NMeY](CF3)[Sar][Phe(3-I)][Pra][NMeAib]L[NMeD]-Piperidide; lactam N-11) , IC50 read as 0.031

Notebook: CC[C@H](C)[C@@H]1NC(=O)[C@H](CC(C)C)N(C)C(=O)C[C@@H](C)NC(=O)[C@H](C(C)C)N(C)C(=O)C2(CCCC2)NC(=O)[C@@H]2CCCN2C(=O)[C@H](CCc2ccc(C(F)(F)F)c(Cl)c2)NC(=O)CN(C)C(=O)[C@H](CC2CCCCC2)N(C)C(=O)CN(CC)C(=O)CN(C)C1=O [Compound 504] (cyclo([Ac5c][NMeV][d(β3hA)][NMeL]I[Sar][NEtG][NMeCha][Sar][hPhe(3-Cl-4-CF3)]P)) , IC50 read as 0.053

***
Notebook: CC[C@H](C)[C@@H]1NC(=O)[C@H](CC(C)C)N(C)C(=O)C[C@@H](C)NC(=O)[C@H](C(C)C)N(C)C(=O)C2(CCCC2)NC(=O)[C@@H]2CCCN2C(=O)[C@H](CCc2ccc(C(F)(F)F)c(Cl)c2)NC(=O)CN(C)C(=O)[C@H](CC2CCCCC2)N(C)C(=O)CN(C)C(=O)CN(CC)C1=O [Compound 210] (cyclo([Ac5c][NMeV][d(β3hA)][NMeL]I[NEtG][Sar][NMeCha][Sar][hPhe(3-Cl-4-CF3)]P)) , IC50 read as 0.08

* * *

# pIC50 values compiled below
SUBJECT OF TEST: Kras and SOS1 (biotin-tagged human Kras loaded with GDP, His-tagged human SOS1) (Homo sapiens, UniProt P01116, G12D)
Construct: made in house; host or cells: E. coli (stated for Kras only)
ASSAY NAME: Protein-protein interaction inhibition between Kras and SOS1 (KrasGl2D-SOS PPI) using AlphaScreen
Format: binding
MEASUREMENT SETUP: AlphaScreen; biotin-tagged human Kras loaded with GDP, His-tagged human SOS1; read-out: KRAS G12D-SOS PPI IC50
Positions of bridges follow the written chain, without caps; N, C: chain ends. Non-standard residues stand in square brackets, D forms with d. Residues, ends and D or L forms follow the SMILES beside them. *: point of attachment. hPhe(3,5-F2-4-CF3) = N[C@@H](CCc1cc(F)c(C(F)(F)F)c(F)c1)C(=O)O; hPhe(3-Cl-4-CF3) = N[C@@H](CCc1ccc(C(F)(F)F)c(Cl)c1)C(=O)O; NMeGly(cPent) = CN[C@H](C(=O)O)C1CCCC1; NMeCha = CN[C@@H](CC1CCCCC1)C(=O)O; NMeChg = CN[C@H](C(=O)O)C1CCCCC1; NMeD = CN[C@@H](CC(=O)O)C(=O)O; NMeL = CN[C@@H](CC(C)C)C(=O)O; NMeNle = CCCC[C@H](NC)C(=O)O; Piperidide = C1CCN(*)CC1; Pyrrolidide = C1CCN(*)C1; Ac5c = NC1(C(=O)O)CCCC1; Sar = CNCC(=O)O
Reminder that pIC50 means the negative base-10 logarithm of the concentration expressed in mol/L.

Notebook: CCCC[C@H]1C(=O)N(C)CC(=O)N[C@@H](CCc2ccc(C(F)(F)F)c(Cl)c2)C(=O)N2CCC[C@H]2C(=O)NC2(CCCC2)C(=O)N(C)[C@@H](C2CCCCC2)C(=O)N(C)[C@H](C(=O)N2CCCCC2)CC(=O)N(C)[C@@H](CC(C)C)C(=O)N[C@@H]([C@@H](C)CC)C(=O)N(C)CC(=O)N(C)CC(=O)N1C [Compound 1832] ([NMeL]I[Sar][Sar][NMeNle][Sar][hPhe(3-Cl-4-CF3)]P[Ac5c][NMeChg][NMeD]-Piperidide; lactam N-11) , pIC50 read as 9.00

***
Notebook: CC[C@H](C)[C@@H]1NC(=O)[C@H](CC(C)C)N(C)C(=O)C[C@@H](C(=O)N2CCCC2)N(C)C(=O)[C@H](C2CCCC2)N(C)C(=O)C2(CCCC2)NC(=O)[C@@H]2CCCN2C(=O)[C@H](CCc2cc(F)c(C(F)(F)F)c(F)c2)NC(=O)CN(C)C(=O)[C@H](CC2CCCCC2)N(C)C(=O)CN(C)C(=O)CN(C)C1=O [Compound 1342] ([NMeL]I[Sar][Sar][NMeCha][Sar][hPhe(3,5-F2-4-CF3)]P[Ac5c][NMeGly(cPent)][NMeD]-Pyrrolidide; lactam N-11) , pIC50 read as 9.28
